molecular target: Cytochrome P450 2C8 (Homo sapiens, UniProt P10632)
Sequence (P10632 whole entry): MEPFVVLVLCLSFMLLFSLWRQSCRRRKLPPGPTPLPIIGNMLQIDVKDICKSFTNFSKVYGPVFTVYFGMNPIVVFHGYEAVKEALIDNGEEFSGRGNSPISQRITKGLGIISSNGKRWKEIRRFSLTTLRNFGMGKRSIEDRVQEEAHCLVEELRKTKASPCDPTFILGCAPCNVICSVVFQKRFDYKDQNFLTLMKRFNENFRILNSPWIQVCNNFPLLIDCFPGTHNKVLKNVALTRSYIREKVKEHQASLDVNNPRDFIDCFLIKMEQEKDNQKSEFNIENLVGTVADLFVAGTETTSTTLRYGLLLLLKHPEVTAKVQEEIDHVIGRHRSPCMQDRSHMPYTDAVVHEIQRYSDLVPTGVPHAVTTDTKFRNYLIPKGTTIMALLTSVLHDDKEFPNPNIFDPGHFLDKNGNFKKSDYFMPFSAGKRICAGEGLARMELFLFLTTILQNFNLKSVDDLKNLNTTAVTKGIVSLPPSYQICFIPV
MEASURE NAME: IC50

Incoming: Can you look up IC50 on Cytochrome P450 2C8 (Homo sapiens, UniProt P10632) for [2H]C([2H])([2H])NC1=NC(=O)[C@]2(CCc3ncccc32)c2cc(C(F)(F)F)ccc21 ?
Outgoing: > 10 µM

* * *

assay: Lipophilicity, log D of compound at pH 7.4 byHPLC method; format: physicochemical; settings: buffer
Binary label based on logD with cut-off 2: below gives 1, not below gives -1.

Please review the entries below; each comes with its answer.
{"COMPOUND": "O=C1N=C(NC2COC2)c2ccc(C(F)(F)F)cc2C12CCc1ncccc12 (racemic)", "CLASS ASSIGNMENT": 1}
{"COMPOUND": "CNC1=NC(=O)C2(CCc3ncccc32)c2cc(C(F)(F)C(F)(F)F)ccc21 (centres undefined)", "CLASS ASSIGNMENT": -1}
{"COMPOUND": "CNC1=NC(=O)C2(CCc3ncccc32)c2cc(C3CC3)ccc21 (centres undefined)", "CLASS ASSIGNMENT": 1}
{"COMPOUND": "[2H]C([2H])([2H])NC1=NC(=O)[C@]2(CCc3ncccc32)c2cc(C(C)(F)F)c(F)cc21", "CLASS ASSIGNMENT": 1}
{"COMPOUND": "NC1=NC(=O)C2(CCc3ncccc32)c2cc(C(F)(F)F)ccc21 (racemic)", "CLASS ASSIGNMENT": 1}

Incoming: API: query returns whether the compound falls strictly under 2 in logD. Query: O=C1N=C(NC2CC(F)(F)C2)c2ccc(C(F)(F)F)cc2C12CCc1ncccc12 (racemic)
Outgoing: -1

Incoming: API: query returns whether the compound falls strictly under 2 in logD. Query: [2H]C([2H])([2H])NC1=NC(=O)[C@]2(CCc3ncccc32)c2cc(C(C)(F)F)ccc21
Outgoing: 1

Incoming: API: query returns whether the compound falls strictly under 2 in logD. Query: [2H]C([2H])([2H])NC1=NC(=O)[C@]2(CCc3ncccc32)c2cc(C(F)(F)F)ccc21
Outgoing: 1
